B1: Zinc finger homeobox protein 3, residues 2643 to 2698; numbered along this chain, Q15911 (parent)
chain: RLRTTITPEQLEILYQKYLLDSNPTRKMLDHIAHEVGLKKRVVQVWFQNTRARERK

Variants of: B1
ASSAY_NAME: abundance fitness (aPCA) (normalised: wild type 0, dead -1); higher = more abundant; growth selection in yeast, the domain comes from the species named
TEST_SETTINGS: Homo sapiens
Here the recorded abundance fitness is given for each entry.
Give the figure by itself; no unit, no explanation.

Examples from the recorded data:
INSERT INTO measurements (seq_string, assay_value) VALUES
  ('RLRTTITPEQLEILYQKYLLDSNPTRKMLDHYAHEVGLKKRVVQVWFQNTRARERK', -0.378),
  ('RLRTTITPEQLEILYQKVLLDSNPTRKMLDHIAHEVGLKKRVVQVWFQNTRARERK', -0.644),
  ('RLRTTITPEQLEILYQKYLLDSNPTRKMLDHKAHEVGLKKRVVQVWFQNTRARERK', -0.807),
  ('RLRTTITPEQLEILYQKYLLDSNPTRKMLDHIAHEVGLKKRVVQVWFQNHRARERK', -0.11),
  ('RLRTTITPEQLEILYQKYLLDSNPTRKMRDHIAHEVGLKKRVVQVWFQNTRARERK', -0.544),
  ('RLRTTITPQQLEILYQKYLLDSNPTRKMLDHIAHEVGLKKRVVQVWFQNTRARERK', -0.038),
  ('RLRTTITPEQLEILYQKYLLDSNPTRKMLDHIAHEVGLMKRVVQVWFQNTRARERK', 0.13),
  ('RLRTTITPEQLEILYQKYLLDSNPTRKMLDHIAHEVGLKKRVVQVWFQNTRAMERK', -0.132),
  ('RLRTTITPEQLEILYQKYLLDSNPTRKMLDHIAHEVGLKKRVVQVWFQNWRARERK', -0.156),
  ('RLRTTITPEQLEILYQKYLLDSNPTRKMLDHIAHEVGLKKRVVQVWFQNTRARENK', 0.462);

Consider the variant shown here: RLRTTITPEQLEILYQKYLLDSNPTRKMLDHIAHEVGLKKRVVQVAFQNTRARERK What is its recorded abundance fitness? -0.482

Queued: RLRTTITPEQLEILYQKYLVDSNPTRKMLDHIAHEVGLKKRVVQVWFQNTRARERK 0.002

Queued: RLRTTITPEQLEILYQKYLLDSNPTRKMLDHIAHEVGLKKRVVQMWFQNTRARERK -0.005

Queued: RLRTTITPEQLEILYQKYLLDSNPTRKMLDHIAHEVGLKKIVVQVWFQNTRARERK 0.544

Queued: RLRTTITPEQLEILYQKYLLDSNPTRKMLDHIAHEAGLKKRVVQVWFQNTRARERK -0.114

Queued: RLRTTITPEQLEILYQKYLLDSNPTRKMLDHIAHEVGMKKRVVQVWFQNTRARERK -0.009

Queued: RLRTTITPEMLEILYQKYLLDSNPTRKMLDHIAHEVGLKKRVVQVWFQNTRARERK -0.411

Queued: RLRTTITPEQLEILYQKYGLDSNPTRKMLDHIAHEVGLKKRVVQVWFQNTRARERK -0.175

Queued: RLRTTITPEQLEILYQKYLLDSNPTRKMLDHIAHEHGLKKRVVQVWFQNTRARERK -0.964

Every entry's value here was drawn from the Human Domainome abundance scans (Beltran et al. 2025).
